Hey, just so you know, these numbers are from ChEMBL document CHEMBL1201862.

# measured.on: Short transient receptor potential channel 4 (Mus musculus)
# Sequence (Q9QUQ5 whole entry): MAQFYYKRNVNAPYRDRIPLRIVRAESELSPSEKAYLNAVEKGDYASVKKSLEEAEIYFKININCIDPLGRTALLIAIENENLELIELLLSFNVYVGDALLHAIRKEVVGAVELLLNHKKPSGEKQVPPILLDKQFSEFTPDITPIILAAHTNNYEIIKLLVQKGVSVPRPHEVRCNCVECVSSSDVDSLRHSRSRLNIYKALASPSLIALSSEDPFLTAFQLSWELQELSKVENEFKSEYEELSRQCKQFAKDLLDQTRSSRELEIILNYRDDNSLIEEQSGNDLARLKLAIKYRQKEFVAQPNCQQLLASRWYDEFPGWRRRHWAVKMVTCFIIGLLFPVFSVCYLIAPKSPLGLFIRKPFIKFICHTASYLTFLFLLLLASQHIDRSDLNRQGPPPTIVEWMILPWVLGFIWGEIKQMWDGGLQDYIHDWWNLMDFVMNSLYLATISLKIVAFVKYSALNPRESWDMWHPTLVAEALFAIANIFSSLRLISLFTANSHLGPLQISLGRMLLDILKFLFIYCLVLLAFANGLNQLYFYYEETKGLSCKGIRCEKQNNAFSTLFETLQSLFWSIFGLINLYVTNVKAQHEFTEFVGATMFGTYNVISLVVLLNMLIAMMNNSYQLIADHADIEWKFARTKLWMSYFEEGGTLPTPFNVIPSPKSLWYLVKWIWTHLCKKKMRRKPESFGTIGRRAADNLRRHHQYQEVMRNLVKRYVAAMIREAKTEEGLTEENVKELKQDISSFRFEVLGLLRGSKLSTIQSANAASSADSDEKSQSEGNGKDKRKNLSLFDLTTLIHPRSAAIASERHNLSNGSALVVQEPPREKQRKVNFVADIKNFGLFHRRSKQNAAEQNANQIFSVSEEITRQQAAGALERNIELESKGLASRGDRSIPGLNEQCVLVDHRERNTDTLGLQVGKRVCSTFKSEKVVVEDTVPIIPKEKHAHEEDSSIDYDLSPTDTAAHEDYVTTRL
# test.method.notes: mouse TRPC4 channel activators, dose response, cell-based, HEK293 TRPC4/mu-opioid, Fluo-4 calcium (AID 434937)
# Format: functional
Activity calls are given as the source filed them. The rule behind the calls is not given here.

molecule	EC50
Cc1onc(-c2c(F)cccc2Cl)c1C(=O)N1CCN(c2ncc(Br)cn2)CC1	4730 nM (active)
CCCN(CCC)CCCNC(=O)c1ccc2c(Cl)c3c(nc2c1)CCC3	10.7 nM (active)
Cc1oc(-c2ccccc2Cl)nc1C[S+]([O-])CC(=O)NCCCN1CC(C)CC(C)C1 (stereo not given)	299 nM (active)
CCOC(=O)c1oc2ccc(OC)cc2c1NC(=O)CN1CCN(C)CC1	1060 nM (active)
O=C(NNC(=S)NC(=O)c1ccccc1Cl)c1cccc([N+](=O)[O-])c1	5960 nM (active)
